tested on: HCT116; details: 72 h; ICRF193 0 nM
Counter-ions that a name gives are not always drawn.

compound | IC50 cell viability
COc1ccc(-c2nc3cc(C4=NNC(=O)CC4C)ccc3[nH]2)cc1 (centres undefined) | > 45.8 µM
CN(C)CCOC(=O)C(c1ccccc1)C1(O)CCCC1 (centres undefined) [Cyclopentolate hydrochloride] | > 45.8 µM
CCSc1ccc2c(c1)N(CCCN1CCN(C)CC1)c1ccccc1S2 [Thiethylperazine dimalate] | 29.1 µM
O=C(O)c1ccc(NC(=O)[C@H](Cc2ccc(O)cc2)NC(=O)c2ccccc2)cc1 [Bentiromide sodium] | > 45.8 µM

====

test system: HCT116; conditions: 72 h; ICRF193 200 nM
Counter-ions that a name gives are not always drawn.
Recorded measurements of IC50 cell viability, one per entry

compound | IC50 cell viability
CCC(=O)NS(=O)(=O)c1ccc(-c2c(-c3ccccc3)noc2C)cc1 | > 45.8 µM
OCc1cc([C@@H](O)CNCCCCCCOCCOCc2c(Cl)cccc2Cl)ccc1O | > 45.8 µM
CC1(C)O[C@@H]2C[C@H]3[C@@H]4CCC5=CC(=O)CC[C@]5(C)[C@@]4(F)[C@@H](O)C[C@]3(C)[C@]2(C(=O)CCl)O1 [Halcinonide] | > 45.8 µM
CC(NCCc1ccc(O)cc1)C(O)c1ccc(O)cc1 (stereo not given) [Ritodrine hydrochloride] | > 45.8 µM
CCC(=O)C(CCN(C)C)(c1ccccc1)c1ccccc1 | > 45.8 µM
CC[C@H](C)C[C@H](C)CCCCCCCCC(=O)N[C@H]1C[C@@H](O)[C@@H](NCCN)NC(=O)[C@@H]2[C@@H](O)CCN2C(=O)[C@H]([C@H](O)CCN)NC(=O)[C@H]([C@H](O)[C@@H](O)c2ccc(O)cc2)NC(=O)[C@@H]2C[C@@H](O)CN2C(=O)[C@H]([C@@H](C)O)NC1=O [Caspofungin Acetate] | > 45.8 µM
CCNCC(O)c1cccc(O)c1 (stereo not given) [Etilefrine hydrochloride] | > 45.8 µM
Cn1cnc([N+](=O)[O-])c1Sc1ncnc2[nH]cnc12 | 3.66 µM
CCC(=O)c1ccc2c(c1)N(CCCN(C)C)c1ccccc1S2 [Propionylpromazine hydrochloride] | 23.1 µM
O=C(OCC(O)CO)c1ccccc1Nc1ccnc2cc(Cl)ccc12 (stereo not given) [Glafenine hydrochloride] | > 45.8 µM
Nc1ccc(S(N)(=O)=O)cc1 [Sulfanilamide] | > 45.8 µM
Cc1ccc(C)c(OCCCC(C)(C)C(=O)O)c1 | > 45.8 µM
CC[C@H](C)[C@H](N)C(=O)O (racemic) | > 45.8 µM
COc1cc(NS(=O)(=O)c2ccc(N)cc2)nc(OC)n1 | > 45.8 µM
CCCOC(C(=O)OC1CCN(C)CC1)(c1ccccc1)c1ccccc1 [Propiverine hydrochloride] | 16.4 µM

Attribution: the supplement of paper PMC12137928
